Entries and their Total Cell Count values follow.
# System: U2OS
# MEASUREMENT_NOTES: Multiplex assay against U2OS
# Format: toxicity, cell-based
# PROTOCOL_CONDITIONS: human, 24 h, 10 µM, compound concentration 10 uM, replicate 1
ASSAY_READOUT: Total Cell Count

{"columns": ["COMPOUND", "OBSERVED_RESULT"],
 "data": [
  ["COc1cc2ncn(-c3cc(OCc4ccccc4C(F)(F)F)c(C(N)=O)s3)c2cc1OC [GW843682X]", 190],
  ["Cl.O=C(O)c1cc(-c2ccc(C3CCNCC3)cc2)c2ccc(-c3ccc(C(F)(F)F)cc3)cc2c1", 227],
  ["O=c1[nH]c2ccccc2n1C1CCN(Cc2ccc(-c3[nH]c4cc5ncnc5cc4nc3-c3ccccc3)cc2)CC1", 174],
  ["CCc1ccc(OCc2ccccc2C(=O)Nc2ccc3nc(C)cc(N)c3c2)cc1.Cl", 127],
  ["COc1ccccc1CN[C@H]1C2CCN(CC2)[C@H]1C(c1ccccc1)c1ccccc1", 157],
  ["CC(C)OC(=O)N1CCC(Oc2ncnc3c2cnn3-c2ccc(S(C)(=O)=O)cc2F)CC1", 248],
  ["CN1CCN(Cc2ccc(Nc3ncc(Cl)c(Nc4ccccc4S(=O)(=O)N(C)C)n3)cc2)CC1", 150],
  ["C=CC(=O)Nc1cccc(Sc2nc(Nc3ccc(N4CCN(C)CC4)cc3)ncc2Cl)c1", 158],
  ["Cc1ccc2c(c1)c1c(n2CCc2ccc(C)nc2)CCN(C)C1 [LATREPIRDINE]", 172]
]}

====

# System: U2OS
# MEASUREMENT_NOTES: Multiplex assay against U2OS
# Assay type: toxicity, cell-based
# PROTOCOL_CONDITIONS: human, 24 h, 10 µM, compound concentration 10 uM, replicate 1
ASSAY_READOUT: Population Hoechst High Intensity Objects (%)

{"columns": ["COMPOUND", "MEASUREMENT_UNITS", "OBSERVED_RESULT"],
 "data": [
  ["C=CC(=O)Nc1cccc(Sc2nc(Nc3ccc(N4CCN(C)CC4)cc3)ncc2Cl)c1", "%", 1],
  ["Cc1ccc2c(c1)c1c(n2CCc2ccc(C)nc2)CCN(C)C1 [LATREPIRDINE]", "%", 8],
  ["CCc1ccc(OCc2ccccc2C(=O)Nc2ccc3nc(C)cc(N)c3c2)cc1.Cl", "%", 12],
  ["O=c1cc(N2CCOCC2)oc2c(-c3cccc4c3sc3ccccc34)cccc12", "%", 7],
  ["CNC(=O)Nc1ccc(-c2nc(N3CC4CCC(C3)O4)c3cnn(C4CCC5(CC4)OCCO5)c3n2)cc1", "%", 10],
  ["Cl.O=C(O)c1cc(-c2ccc(C3CCNCC3)cc2)c2ccc(-c3ccc(C(F)(F)F)cc3)cc2c1", "%", 4],
  ["COc1cc2ncn(-c3cc(OCc4ccccc4C(F)(F)F)c(C(N)=O)s3)c2cc1OC [GW843682X]", "%", 9],
  ["CC(C)Oc1ccccc1C(=O)Nc1ccccc1C(=O)Nc1cccc(S(=O)(=O)C(F)(F)F)c1", "%", 6],
  ["C=CC(=O)Nc1cccc(Oc2nc(Nc3ccc(N4CCN(C)CC4)cc3OC)ncc2Cl)c1", "%", 3],
  ["CC(C)NC(=O)N1CC[C@H](NC2=Nc3cc(F)ccc3N(CC(F)F)c3ccc(Cl)cc32)C1", "%", 6],
  ["CC(C)c1noc(N2CCC(COc3ccc(-c4ccc(S(C)(=O)=O)cc4)nc3)CC2)n1", "%", 7],
  ["Cc1nc(N2CC[C@H](O)C2)ncc1-c1cc(C(F)(F)F)cc2[nH]ncc12", "%", 4],
  ["COc1ccc(-c2ccc3ncc4c(c3c2)n(-c2ccc(N3CCNCC3)c(C(F)(F)F)c2)c(=O)n4C)cn1.O=C(O)/C=C\\C(=O)O", "%", 15],
  ["Cc1cccc(CN2CCN(C(c3ccccc3)c3ccc(Cl)cc3)CC2)c1.Cl.Cl (stereo not drawn)", "%", 7],
  ["Cc1ccc(C)c(Oc2ccncc2C(=O)N2CCN(C3CC3)c3ccccc32)c1", "%", 10],
  ["C=CC(=O)Nc1ccc2[nH]c(=O)n(C3CCN(Cc4ccc(-c5nc6cc[nH]c(=O)c6cc5-c5ccccc5)cc4)CC3)c2c1", "%", 2],
  ["CC(C)OC(=O)N1CCC(Oc2ncnc3c2cnn3-c2ccc(S(C)(=O)=O)cc2F)CC1", "%", 4],
  ["COC(=O)C1=C(C)NC(C)=C(C(=O)OCCCN2CCC(c3ccccc3)(c3ccccc3)CC2)[C@H]1c1cccc([N+](=O)[O-])c1", "%", 14]
]}
